experiment: Oral bioavailability in mouse; type: ADME, organism-based; conditions: in vivo
property_name: bioavailability

INSERT INTO results (substance_smiles, reported_measurement) VALUES
  ('C[C@@H]1OC(=O)NN=C1c1ccc(-c2ccc(F)cc2)c(C(F)(F)F)c1', '> 95%');

###

assay: Half life in iv dosed mouse; type: ADME, organism-based; conditions: in vivo
property_name: half-life (h)

INSERT INTO assay_data (substance_smiles, property_name, result_units, reported_measurement) VALUES
  ('C[C@@H]1OC(=O)NN=C1c1ccc(-c2ccc(F)cc2)c(C(F)(F)F)c1', 'half-life', 'h', 4.6);

###

Measured Ratio IC50/EC50, listed per entry for reference.
assay: Selectivity ratio of IC50 for inhibition of full-length human PDE3A expressed in Sf9 cells to EC50 for antiproliferative activity against human HeLa cells
property_name: Ratio IC50/EC50

INSERT INTO measurements (substance_smiles, reported_measurement) VALUES
  ('C[C@@H]1OC(=O)NN=C1c1ccc(-c2ccc(F)cc2)c(C(F)(F)F)c1', 79),
  ('Cc1ccncc1-c1ccc(C2=NNC(=O)O[C@H]2C)cc1C(F)(F)F', 6),
  ('C[C@@H]1OC(=O)NN=C1c1ccc(N2CCN(C)CC2)c(C(F)(F)F)c1', 172),
  ('O=C1NN=C(c2ccc(-c3ccc(F)cc3)c(OC(F)(F)F)c2)CO1', 39),
  ('COc1ccc(-c2ccc(C3=NNC(=O)O[C@H]3C)cc2C(F)(F)F)cc1', 4.1),
  ('C[C@@H]1CC(=O)NN=C1c1cc(F)c(N2CCOCC2)c(Cl)c1', 5.5),
  ('C[C@@H]1OC(=O)NN=C1c1ccc(-c2cccc(F)c2)c(C(F)(F)F)c1', 22),
  ('C[C@@H]1CC(=O)NN=C1c1ccc(N2CCOCC2)c(F)c1', 18),
  ('C[C@@H]1OC(=O)NN=C1c1ccc(-c2ccc(Cl)cn2)c(C(F)(F)F)c1', '>90'),
  ('C[C@@H]1OC(=O)NN=C1c1ccc(N2CCOCC2)c(F)c1', 23),
  ('O=C1CCC(c2cc(Cl)c(N3CCOCC3)c(Cl)c2)=NN1', 8.5),
  ('C[C@@H]1CC(=O)NN=C1c1ccc(N2CCCCC2)cc1', 126),
  ('C[C@@H]1CC(=O)NN=C1c1cc(F)c(N2CCOCC2)c(F)c1', 4),
  ('O=C1CCC(c2ccc(N3CCOCC3)cc2)=NN1', '>12'),
  ('C[C@@H]1OC(=O)NN=C1c1ccc(N2CCOCC2)c(C(F)(F)F)c1', 18),
  ('Cc1ccc(-c2ccc(C3=NNC(=O)O[C@H]3C)cc2C(F)(F)F)cn1', 8),
  ('C[C@@H]1OC(=O)NN=C1c1ccc(-c2cnn(C(F)F)c2)c(C(F)(F)F)c1', 202),
  ('C[C@@H]1OC(=O)NN=C1c1ccc(-c2ccc(O)cc2)c(C(F)(F)F)c1', 38),
  ('C[C@@H]1OC(=O)NN=C1c1ccc(-c2ccccc2F)c(C(F)(F)F)c1', 18),
  ('C[C@@H]1OC(=O)NN=C1c1ccc(-c2ccnc(N)c2)c(C(F)(F)F)c1', 109),
  ('C[C@@H]1OC(=O)NN=C1c1ccc(-c2ccncc2)c(C(F)(F)F)c1', 112),
  ('O=C1NN=C(c2ccc(N3CCC(F)(F)CC3)c(F)c2)CO1', 178);

###

pIC50, cGMP-inhibited 3',5'-cyclic phosphodiesterase 3A (Homo sapiens), per-entry values.
pIC50: −log10 of the molar value.
property_name: pIC50

INSERT INTO assay_data (substance_smiles, qualifier_symbol, reported_measurement) VALUES
  ('C[C@@H]1OC(=O)NN=C1c1ccc(-c2cnn(C(F)F)c2)c(C(F)(F)F)c1', '=', 7.43),
  ('C[C@@H]1OC(=O)NN=C1c1ccc(-c2ccc(F)cc2)c(C(F)(F)F)c1', '=', 7.09),
  ('C[C@@H]1CC(=O)NN=C1c1cc(F)c(N2CCOCC2)c(Cl)c1', '=', 8.72),
  ('C[C@@H]1OC(=O)NN=C1c1ccc(-c2ccc(Cl)cn2)c(C(F)(F)F)c1', '<', 6.00);

###

As shown below, each of these compounds has a reported Fh at 1.5 h, 1 µM value.
assay: Metabolic stability in mouse hepatocytes assessed as bioavailability at 1 uM measured upto 90 mins by LC-MS/MS analysis; assay type: ADME, Hepatocyte
property_name: Fh at 1.5 h, 1 µM (%)

INSERT INTO results (substance_smiles, result_units, reported_measurement) VALUES
  ('C[C@@H]1OC(=O)NN=C1c1ccc(N2CCN(C)CC2)c(C(F)(F)F)c1', '%', 18),
  ('O=C1NN=C(c2ccc(-c3ccc(F)cc3)c(C(F)(F)F)c2)CO1', '%', 38),
  ('O=C1CCC(c2ccc(N3CCOCC3)c(F)c2)=NN1', '%', 80),
  ('O=C1NN=C(c2ccc(N3CCC(F)(F)CC3)c(F)c2)CO1', '%', 19),
  ('O=C1NN=C(c2ccc(-c3ccc(F)cc3)c(OC(F)(F)F)c2)CO1', '%', 32);

###

tested on: C32; assay: Antiproliferative activity against human C32 cells incubated for 72 hrs by Cell Titer Glo luminescence assay; assay type: functional, cell-based; conditions: C32, 72 h
pEC50: −log10 of the molar value.
Listing: pEC50 of selected compounds
property_name: pEC50

INSERT INTO measurements (substance_smiles, reported_measurement) VALUES
  ('C[C@@H]1OC(=O)NN=C1c1ccc(-n2cc(C(F)(F)F)cn2)c(C(F)(F)F)c1', 6.88),
  ('C[C@@H]1OC(=O)NN=C1c1ccc(-c2ccc(F)cc2)c(C(F)(F)F)c1', 7.24),
  ('C[C@@H]1OC(=O)NN=C1c1ccc(-c2cnn(C(F)F)c2)c(C(F)(F)F)c1', 7.28);

###

test: Clearance in rat blood; format: ADME, tissue-based
property_name: clearance (mL/min/kg)

INSERT INTO results (substance_smiles, result_units, reported_measurement) VALUES
  ('C[C@@H]1OC(=O)NN=C1c1ccc(-c2ccc(F)cc2)c(C(F)(F)F)c1', 'mL/min/kg', 4.17),
  ('C[C@@H]1OC(=O)NN=C1c1ccc(-n2cc(C(F)(F)F)cn2)c(C(F)(F)F)c1', 'mL/min/kg', 8.17);

###

assay: Selectivity ratio of IC50 for inhibition of full-length human PDE3A expressed in Sf9 cells to EC50 for antiproliferative activity against human HeLa cells
Parameter Ratio IC50/EC50: see the listing below.
property_name: Ratio IC50/EC50

INSERT INTO assay_data (substance_smiles, property_name, reported_measurement) VALUES
  ('C[C@@H]1OC(=O)NN=C1c1ccc(-n2cc(C(F)(F)F)cn2)c(C(F)(F)F)c1', 'Ratio IC50/EC50', 265),
  ('O=C1NN=C(c2ccc(-c3ccc(F)cc3)c(C(F)(F)F)c2)CO1', 'Ratio IC50/EC50', 112),
  ('COc1ccc(-c2ccc(C3=NNC(=O)O[C@H]3C)cc2C(F)(F)F)cn1', 'Ratio IC50/EC50', 4),
  ('Cc1cc(C2=NNC(=O)OC2)ccc1-c1ccc(F)cc1', 'Ratio IC50/EC50', 44),
  ('O=C1CCC(c2ccc(N3CCOCC3)c(F)c2)=NN1', 'Ratio IC50/EC50', 31),
  ('O=C1NN=C(c2ccc(-c3ccc(F)cc3)c(F)c2)CO1', 'Ratio IC50/EC50', 57),
  ('O=C1NN=C(c2ccc(N3CCOCC3)c(F)c2)CO1', 'Ratio IC50/EC50', 26),
  ('O=C1NN=C(c2ccc(N3CCOCC3)c(C(F)(F)F)c2)CO1', 'Ratio IC50/EC50', 12),
  ('Cc1cc(-c2ccc(C3=NNC(=O)O[C@H]3C)cc2C(F)(F)F)ccn1', 'Ratio IC50/EC50', 14);

###

molecular target: cGMP-inhibited 3',5'-cyclic phosphodiesterase 3A (Homo sapiens, UniProt Q14432)
Sequence (Q14432 whole entry): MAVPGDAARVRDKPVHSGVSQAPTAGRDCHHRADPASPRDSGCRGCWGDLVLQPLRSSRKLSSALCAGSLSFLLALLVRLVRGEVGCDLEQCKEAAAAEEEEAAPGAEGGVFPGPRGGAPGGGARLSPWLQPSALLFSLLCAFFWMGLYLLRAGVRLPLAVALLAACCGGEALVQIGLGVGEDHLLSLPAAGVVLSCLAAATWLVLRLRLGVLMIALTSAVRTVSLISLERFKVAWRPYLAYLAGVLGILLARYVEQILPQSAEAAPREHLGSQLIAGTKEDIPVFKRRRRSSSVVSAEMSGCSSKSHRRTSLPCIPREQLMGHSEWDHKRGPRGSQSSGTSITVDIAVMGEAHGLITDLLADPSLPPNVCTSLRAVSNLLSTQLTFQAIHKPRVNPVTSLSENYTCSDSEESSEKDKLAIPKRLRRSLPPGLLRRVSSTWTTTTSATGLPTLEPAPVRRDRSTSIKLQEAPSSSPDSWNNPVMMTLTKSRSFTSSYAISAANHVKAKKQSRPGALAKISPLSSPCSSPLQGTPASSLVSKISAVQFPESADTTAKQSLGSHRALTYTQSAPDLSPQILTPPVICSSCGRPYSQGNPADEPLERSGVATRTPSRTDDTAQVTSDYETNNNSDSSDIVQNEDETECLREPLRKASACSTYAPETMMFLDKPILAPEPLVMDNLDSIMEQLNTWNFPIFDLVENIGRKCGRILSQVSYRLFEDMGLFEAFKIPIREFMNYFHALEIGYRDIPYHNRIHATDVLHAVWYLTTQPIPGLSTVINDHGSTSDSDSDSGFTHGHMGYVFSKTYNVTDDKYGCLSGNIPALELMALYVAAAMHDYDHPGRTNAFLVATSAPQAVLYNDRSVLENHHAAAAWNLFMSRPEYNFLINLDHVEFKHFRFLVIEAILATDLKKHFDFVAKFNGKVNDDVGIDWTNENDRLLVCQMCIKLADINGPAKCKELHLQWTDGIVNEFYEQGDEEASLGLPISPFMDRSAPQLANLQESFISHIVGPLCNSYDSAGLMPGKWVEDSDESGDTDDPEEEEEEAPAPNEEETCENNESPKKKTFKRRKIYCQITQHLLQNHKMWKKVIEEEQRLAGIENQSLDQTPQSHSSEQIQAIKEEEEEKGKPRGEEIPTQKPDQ
pIC50: −log10 of the molar value.
Returns one of t or f; t when pIC50 is >= 7.

INSERT INTO measurements (substance_smiles, assigned_category) VALUES
  ('O=C1NN=C(c2ccc(N3CCOCC3)c(C(F)(F)F)c2)CO1', 't'),
  ('C[C@@H]1OC(=O)NN=C1c1ccc(N2CCN(C)CC2)c(C(F)(F)F)c1', 't'),
  ('C[C@@H]1CC(=O)NN=C1c1ccc(N2CCCCC2)cc1', 'f'),
  ('O=C1CCC(c2ccc(N3CCOCC3)cc2)=NN1', 'f'),
  ('C[C@@H]1OC(=O)NN=C1c1ccc(N2CCOCC2)c(F)c1', 't');

###

experiment: Metabolic stability in rat hepatocytes assessed as bioavailability at 1 uM measured upto 90 mins by LC-MS/MS analysis; type: ADME, Hepatocyte
Measured predicted hepatic bioavailability (Fh) from hepatocyte stability at 1 µM, listed per entry for reference.
property_name: predicted hepatic bioavailability (Fh) from hepatocyte stability at 1 µM (%)

INSERT INTO measurements (substance_smiles, reported_measurement) VALUES
  ('C[C@@H]1OC(=O)NN=C1c1ccc(N2CCN(C)CC2)c(C(F)(F)F)c1', 11),
  ('C[C@@H]1CC(=O)NN=C1c1ccc(N2CCOCC2)c(F)c1', 94),
  ('O=C1NN=C(c2ccc(-c3ccc(F)cc3)c(OC(F)(F)F)c2)CO1', 85),
  ('O=C1NN=C(c2ccc(-c3ccc(F)cc3)c(C(F)(F)F)c2)CO1', 84),
  ('Cc1cc(C2=NNC(=O)OC2)ccc1-c1ccc(F)cc1', 88),
  ('C[C@@H]1CC(=O)NN=C1c1cc(F)c(N2CCOCC2)c(Cl)c1', 58),
  ('O=C1NN=C(c2ccc(N3CCOCC3)c(C(F)(F)F)c2)CO1', 83),
  ('C[C@@H]1CC(=O)NN=C1c1cc(F)c(N2CCOCC2)c(F)c1', 90),
  ('C[C@@H]1OC(=O)NN=C1c1ccc(-c2ccnc(N)c2)c(C(F)(F)F)c1', 83),
  ('C[C@@H]1OC(=O)NN=C1c1ccc(-c2ccncc2)c(C(F)(F)F)c1', 93);
